For each entry below, report its IC50 Ratio (vs PYY(3-36)) value.
Molecular target: T1, human Y2 receptor (human, UniProt P49146 1-381)
T1 construct: whole, on cells; used as membrane fraction of hY2R/CHO cells; also called human NPY2R; hY2R
T1 sequence (looked up): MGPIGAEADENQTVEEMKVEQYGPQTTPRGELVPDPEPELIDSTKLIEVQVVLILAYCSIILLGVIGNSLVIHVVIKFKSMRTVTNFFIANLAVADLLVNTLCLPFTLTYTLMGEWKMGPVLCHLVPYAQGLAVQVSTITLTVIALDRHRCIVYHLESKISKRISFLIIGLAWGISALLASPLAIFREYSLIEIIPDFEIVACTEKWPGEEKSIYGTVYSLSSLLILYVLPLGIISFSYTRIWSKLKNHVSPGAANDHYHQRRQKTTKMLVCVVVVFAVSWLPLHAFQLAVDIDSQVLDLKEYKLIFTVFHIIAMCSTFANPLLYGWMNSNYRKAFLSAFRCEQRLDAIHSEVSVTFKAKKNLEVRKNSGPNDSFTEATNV
Assay: RBA: [125I]-PYY displacement, hY2R/CHO membranes
Non-standard residues stand in square brackets, D forms with d. No end group written: not given here. 1Nal = N[C@@H](Cc1cccc2ccccc12)C(=O)O; Cha = N[C@@H](CC1CCCCC1)C(=O)O; dIva = CC[C@@](C)(N)C(=O)O; 4Amb = NCc1ccc(C(=O)O)cc1; Nle = CCCC[C@H](N)C(=O)O; Ac3c = NC1(C(=O)O)CC1; Aib = CC(C)(N)C(=O)O
Numbers only, in ratio.

// worked examples, IC50 Ratio (vs PYY(3-36)) included
INSERT INTO measurements (binder, metric, meas_value) VALUES
  ('Ac-S[dP]RH[Cha][Ac3c]NL[Aib]TRQR[Cha]-NH2 (SMILES CC(=O)N[C@@H](CO)C(=O)N1CCC[C@@H]1C(=O)N[C@@H](CCCNC(=N)N)C(=O)N[C@@H](Cc1c[nH]cn1)C(=O)N[C@@H](CC1CCCCC1)C(=O)NC1(C(=O)N[C@@H](CC(N)=O)C(=O)N[C@@H](CC(C)C)C(=O)NC(C)(C)C(=O)N[C@H](C(=O)N[C@@H](CCCNC(=N)N)C(=O)N[C@@H](CCC(N)=O)C(=O)N[C@@H](CCCNC(=N)N)C(=O)N[C@@H](CC2CCCCC2)C(N)=O)[C@@H](C)O)CC1, also called compound No. 145) [Ac-[D-Pro24, Cha27,36, Acpc28, Aib31]-PYY(23-36)]', 'IC50 Ratio (vs PYY(3-36))', 160),
  ('Ac-S[dP]RH[dIva][Cha]NL[Aib]TRQR[Cha]-NH2 (SMILES CC[C@@](C)(NC(=O)[C@H](Cc1c[nH]cn1)NC(=O)[C@H](CCCNC(=N)N)NC(=O)[C@H]1CCCN1C(=O)[C@H](CO)NC(C)=O)C(=O)N[C@@H](CC1CCCCC1)C(=O)N[C@@H](CC(N)=O)C(=O)N[C@@H](CC(C)C)C(=O)NC(C)(C)C(=O)N[C@H](C(=O)N[C@@H](CCCNC(=N)N)C(=O)N[C@@H](CCC(N)=O)C(=O)N[C@@H](CCCNC(=N)N)C(=O)N[C@@H](CC1CCCCC1)C(N)=O)[C@@H](C)O, also called compound No. 180) [Ac-[D-Pro24, D-Iva27, Cha28,36, Aib31]-PYY(23-36)]', 'IC50 Ratio (vs PYY(3-36))', 8.1),
  ('Ac-S[dP]RH[Cha][Aib]NK[Aib]TRQR[Cha]-NH2 (SMILES CC(=O)N[C@@H](CO)C(=O)N1CCC[C@@H]1C(=O)N[C@@H](CCCNC(=N)N)C(=O)N[C@@H](Cc1c[nH]cn1)C(=O)N[C@@H](CC1CCCCC1)C(=O)NC(C)(C)C(=O)N[C@@H](CC(N)=O)C(=O)N[C@@H](CCCCN)C(=O)NC(C)(C)C(=O)N[C@H](C(=O)N[C@@H](CCCNC(=N)N)C(=O)N[C@@H](CCC(N)=O)C(=O)N[C@@H](CCCNC(=N)N)C(=O)N[C@@H](CC1CCCCC1)C(N)=O)[C@@H](C)O, also called compound No. 135) [Ac-[D-Pro24, Cha27,36, Aib28, Lys30, Aib31]-PYY(23-36)]', 'IC50 Ratio (vs PYY(3-36))', 1.9),
  ('Ac-PRAYINLITRQRY-NH2 (also called compound No. 38) [Ac-[Pro24, Ala26, Ile28,31]-PYY(24-36)]', 'IC50 Ratio (vs PYY(3-36))', 52),
  ('[4Amb]RAYINAITRQRY-NH2 (N-terminus assumed; SMILES CC[C@H](C)[C@H](NC(=O)[C@H](C)NC(=O)[C@H](CC(N)=O)NC(=O)[C@@H](NC(=O)[C@H](Cc1ccc(O)cc1)NC(=O)[C@H](C)NC(=O)[C@H](CCCNC(=N)N)NC(=O)c1ccc(CN)cc1)[C@@H](C)CC)C(=O)N[C@H](C(=O)N[C@@H](CCCNC(=N)N)C(=O)N[C@@H](CCC(N)=O)C(=O)N[C@@H](CCCNC(=N)N)C(=O)N[C@@H](Cc1ccc(O)cc1)C(N)=O)[C@@H](C)O, also called compound No. 32) [4-Aminomethylbenzoyl-[Ala26,30, Ile28,31]-PYY(25-36)]', 'IC50 Ratio (vs PYY(3-36))', 9.1);

Look at each binder and report its IC50 Ratio (vs PYY(3-36)).
1. [4Amb]RAY[Nle]NLITRQRY-NH2 (N-terminus assumed; SMILES CCCC[C@H](NC(=O)[C@H](Cc1ccc(O)cc1)NC(=O)[C@H](C)NC(=O)[C@H](CCCNC(=N)N)NC(=O)c1ccc(CN)cc1)C(=O)N[C@@H](CC(N)=O)C(=O)N[C@@H](CC(C)C)C(=O)N[C@H](C(=O)N[C@H](C(=O)N[C@@H](CCCNC(=N)N)C(=O)N[C@@H](CCC(N)=O)C(=O)N[C@@H](CCCNC(=N)N)C(=O)N[C@@H](Cc1ccc(O)cc1)C(N)=O)[C@@H](C)O)[C@@H](C)CC, also called compound No. 21) [4-Aminomethylbenzoyl-[Ala26, Nle28, Ile31]-PYY(25-36)]
2. [4Amb]RAYINLITRQR[1Nal]-NH2 (N-terminus assumed; SMILES CC[C@H](C)[C@H](NC(=O)[C@H](Cc1ccc(O)cc1)NC(=O)[C@H](C)NC(=O)[C@H](CCCNC(=N)N)NC(=O)c1ccc(CN)cc1)C(=O)N[C@@H](CC(N)=O)C(=O)N[C@@H](CC(C)C)C(=O)N[C@H](C(=O)N[C@H](C(=O)N[C@@H](CCCNC(=N)N)C(=O)N[C@@H](CCC(N)=O)C(=O)N[C@@H](CCCNC(=N)N)C(=O)N[C@@H](Cc1cccc2ccccc12)C(N)=O)[C@@H](C)O)[C@@H](C)CC, also called compound No. 13) [4-Aminomethylbenzoyl-[Ala26, Ile28,31, Nal(1)36]-PYY(25-36)]
3. Ac-[dY]AS[dP]RH[Cha][Cha]NL[Aib]TRQR[Cha]-NH2 (SMILES CC(=O)N[C@H](Cc1ccc(O)cc1)C(=O)N[C@@H](C)C(=O)N[C@@H](CO)C(=O)N1CCC[C@@H]1C(=O)N[C@@H](CCCNC(=N)N)C(=O)N[C@@H](Cc1c[nH]cn1)C(=O)N[C@@H](CC1CCCCC1)C(=O)N[C@@H](CC1CCCCC1)C(=O)N[C@@H](CC(N)=O)C(=O)N[C@@H](CC(C)C)C(=O)NC(C)(C)C(=O)N[C@H](C(=O)N[C@@H](CCCNC(=N)N)C(=O)N[C@@H](CCC(N)=O)C(=O)N[C@@H](CCCNC(=N)N)C(=O)N[C@@H](CC1CCCCC1)C(N)=O)[C@@H](C)O, also called compound No. 121) [Ac-[D-Tyr21, D-Pro24, Cha27,28,36, Aib31]-PYY(21-36)]

Solution:
[4.1, 7.6, 1.2]
